molecular target: acetylcholine receptor; test: SPR, receptor immobilized, peptide 10 uM
# Binding affinity (RU) listing for each entry below
# output: bare number, implied unit RU

# example entries with known answers
KKWQQR [6mer-1-153]	146
KCKVR [5mer-783]	29

Tell me the measured Binding affinity (RU) of RETGK [5mer-1070] , please.
26

Tell me the measured Binding affinity (RU) of KIHFRK [6mer-2-874] , please.
33

Tell me the measured Binding affinity (RU) of RRQQSK [6mer-1-169] , please.
153
